# measurement target: cyclin B/CDK1 enzyme (Homo sapiens)
# Construct: purchased New England BioLabs; host or cells: Sf9 insect cells, recombinant baculovirus
# Sequence (P06493 whole entry): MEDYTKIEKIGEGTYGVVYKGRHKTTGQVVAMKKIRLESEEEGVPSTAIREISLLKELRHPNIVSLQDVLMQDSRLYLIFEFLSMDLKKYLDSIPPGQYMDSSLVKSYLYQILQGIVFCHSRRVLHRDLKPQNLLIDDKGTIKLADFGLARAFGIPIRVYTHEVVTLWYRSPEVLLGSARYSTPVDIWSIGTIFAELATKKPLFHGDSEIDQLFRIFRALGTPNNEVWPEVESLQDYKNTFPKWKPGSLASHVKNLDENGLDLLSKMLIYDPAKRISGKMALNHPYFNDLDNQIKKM
# Sequence (P14635 whole entry partner): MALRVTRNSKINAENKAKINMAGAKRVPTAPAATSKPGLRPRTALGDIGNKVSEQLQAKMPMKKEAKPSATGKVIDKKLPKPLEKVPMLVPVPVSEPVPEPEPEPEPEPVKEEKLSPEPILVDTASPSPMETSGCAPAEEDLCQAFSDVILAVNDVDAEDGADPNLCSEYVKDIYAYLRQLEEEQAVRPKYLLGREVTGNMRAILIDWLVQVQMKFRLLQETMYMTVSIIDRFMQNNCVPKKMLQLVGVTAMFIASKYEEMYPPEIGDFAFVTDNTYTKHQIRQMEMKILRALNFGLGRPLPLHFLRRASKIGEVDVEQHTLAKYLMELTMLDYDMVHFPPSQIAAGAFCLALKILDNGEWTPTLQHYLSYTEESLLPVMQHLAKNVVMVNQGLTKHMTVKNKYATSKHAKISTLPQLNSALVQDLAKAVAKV
# test method notes: CDK1 ELISA kinase assay (phospho-Rb ser 795 detection)
# Assay type: biochemical
# experimental parameters: In Vitro Enzyme Assay, read-out: CDK1 IC50
IC50 values by entry

Problem: Dear colleague, please send me the reported IC50 for O=C1NC(=O)c2ccc(Br)cc2/C1=C/Nc1ccc(-n2ccnc2)cc1 when you can.
Result: > 50 µM

Problem: Tell us which IC50 value is on record for CN(CCN1CCCCC1)c1ccc(N/C=C2\C(=O)NC(=O)c3ccc(Br)cc32)cc1
Result: > 50 µM

Problem: Report IC50 for CC(=O)Oc1cc(CN/C=C2\C(=O)NC(=O)c3ccc(Br)cc32)cc2c1OC(C)(C)O2
Result: 1.2 µM

Problem: Consider the compound CONCCCc1ccc(N/C=C2\C(=O)NC(=O)c3ccc(Br)cc32)cc1 . State its measured IC50.
Result: 15.1 µM

* * *

Overview of recorded IC50 for various compounds
# measurement target: cyclin D1/cdk 4 enzyme (Homo sapiens)
# Construct: made in house; host or cells: Sf9 insect cells, recombinant baculovirus
# Sequence (P11802 whole entry, species assumed): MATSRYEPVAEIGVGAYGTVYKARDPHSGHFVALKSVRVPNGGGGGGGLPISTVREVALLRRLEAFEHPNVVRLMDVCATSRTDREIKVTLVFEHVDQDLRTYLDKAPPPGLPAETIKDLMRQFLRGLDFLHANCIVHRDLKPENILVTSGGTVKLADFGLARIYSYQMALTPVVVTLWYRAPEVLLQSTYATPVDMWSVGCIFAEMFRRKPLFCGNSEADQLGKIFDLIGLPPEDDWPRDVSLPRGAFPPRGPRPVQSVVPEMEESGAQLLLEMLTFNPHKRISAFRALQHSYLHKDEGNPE
# Sequence (P24385 whole entry partner, species assumed): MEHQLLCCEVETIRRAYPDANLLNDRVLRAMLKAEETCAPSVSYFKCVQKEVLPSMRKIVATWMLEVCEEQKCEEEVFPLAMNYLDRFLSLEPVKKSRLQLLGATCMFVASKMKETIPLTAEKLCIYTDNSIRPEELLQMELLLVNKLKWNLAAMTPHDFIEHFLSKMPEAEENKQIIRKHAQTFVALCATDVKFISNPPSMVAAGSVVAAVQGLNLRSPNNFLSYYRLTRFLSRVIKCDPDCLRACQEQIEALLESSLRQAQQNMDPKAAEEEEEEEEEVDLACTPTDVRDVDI
# test method notes: CDK4 ELISA kinase assay (phospho-Rb ser 795 detection)
# Format: biochemical
# experimental parameters: In Vitro Enzyme Assays, 200 μM ATP, read-out: CDK4 IC50
Only the number, expressed in µM, is required.

Worked examples follow.
>>> print(df.to_string())
                                   compound  recorded_result
0  CN1CCN(c2ccc(N/C=C3\C(=O)NC(=O)c4ccc(-c5cccc(F)c5)cc43)cc2)CC1              3.3
1  COc1cc(CN/C=C2\C(=O)NC(=O)c3ccc(-c4ccoc4)cc32)cc(O)c1OC           0.0008
2  O=C1NC(=O)c2ccc(Br)cc2/C1=C/Nc1ccc2c(c1)CCN2             17.6

Attention now shifts to the item below.
Problem: Look up and state reported IC50 for C=CCN1CCCC1c1ccc(N/C=C2\C(=O)NC(=O)c3ccc(-c4ccsc4)cc32)cc1 (stereo not shown)
Result: 0.11

* * *

# pIC50 per entry
# Test system: HCT-116
# test method notes: Cytotoxicity assay (SRB), HCT-116
# Assay type: cell-based
# experimental parameters: Homo sapiens, HCT-116, 72 h, HCT116 cells, SRB, three days; read-out: In Vitro Cellular Activity IC50 HCT116
Scale for pIC50: -log10 of concentration given in mol/L; no unit attached.

// solved cases for pIC50 follow
>>> df
                                smiles_code  recorded_result
0  COc1ccc(-c2ccc3c(c2)/C(=C/Nc2ccc(N4C[C@@H](C)N[C@@H](C)C4)c(F)c2)C(=O)NC3=O)cc1             6.03
1  CN1CCCN(c2ccc(N/C=C3\C(=O)NC(=O)c4ccc(Br)cc43)cc2)CC1             5.85
2  COCCOc1ccc(CN/C=C2\C(=O)NC(=O)c3ccc(Br)cc32)cc1O             4.49
3  Cc1cc(N/C=C2\C(=O)NC(=O)c3ccc(-c4ccoc4)cc32)cnc1N1C[C@@H](C)N[C@@H](C)C1             5.92
4  COc1cc2c(cc1Br)/C(=C/Nc1ccc(CN3CCCCC3)cc1)C(=O)NC2=O             4.85
5  O=C1NC(=O)c2ccc(-c3ccoc3)cc2/C1=C/NCc1ccc(OC(F)F)c(O)c1             5.19
6  C[C@@H]1CN(c2ccc(N/C=C3\C(=O)NC(=O)c4ccc(Br)cc43)cc2F)C[C@H](C)N1             5.89
7  N#Cc1ccc2c(c1)/C(=C/Nc1ccc(CN3CCCCC3)cc1)C(=O)NC2=O             5.80

Problem: Return pIC50 for the following compound: CN1CCN(c2ccc(N/C=C3\C(=O)NC(=O)c4ccc(-c5ccc(F)cc5)cc43)cc2F)CC1
Result: 5.74

Problem: Complete the entry with pIC50 for C[C@@H]1CN(c2ccc(N/C=C3\C(=O)NC(=O)c4ccc(Br)cc43)cc2C(F)(F)F)C[C@H](C)N1
Result: 5.92

Problem: Quickly give me recorded pIC50 for O=C1NC(=O)c2ccc(-n3cccc3)cc2/C1=C/Nc1ccc(CN2CCCC2)cc1
Result: 5.47

Problem: Specify reported pIC50 for the compound shown: O=C1NC(=O)c2ccc(I)cc2/C1=C/Nc1ccc(CN2CCC[C@@H]2CO)cc1
Result: 5.49

Problem: Return pIC50 for the following compound: CCCOc1cnc(CNC=C2C(=O)NC(=O)c3ccc(I)cc32)cc1O
Result: 6.14

Problem: Query pIC50 for CCCOc1ccc(CNC=C2C(=O)NC(=O)c3ccc(-n4cccc4)cc32)cc1O
Result: 5.54

Problem: Using the record for COC[C@H]1CCCN1Cc1ccc(N/C=C2\C(=O)NC(=O)c3ccc(Br)cc32)cc1 , state its measured pIC50.
Result: 5.14

Problem: For the compound CN(C(=O)CN1CCCCC1)c1ccc(N/C=C2\C(=O)NC(=O)c3ccccc32)cc1 , give its reported pIC50.
Result: 4.68
